Record form. Attribute: MIC S. aureus 133. Fill in for each entry.
# System: Staphylococcus aureus 133
# Type: cell-based
# experimental.parameters: Isosensitest medium, 10^5 microbes per ml, 37° C., 18-24 hours
Starred links: 1 amine or outer side, 2 acyl side, 3 side chain; linkers in the order of their positions; H or OH if unused. Positions of bridges follow the written chain, without caps; N, C: chain ends. Non-standard residues stand in square brackets, D forms with d. Residues, ends and D or L forms follow the SMILES beside them. Phe(3R-OH) = O=C([C@@H](N[*:1])[C@H](O[*:3])c1ccccc1)[*:2]; Asn(3S-OH) = NC(=O)[C@@H](O)[C@H](N)C(=O)O; Leu(3R-OH) = CC(C)[C@@H](O)[C@H](N)C(=O)O; dAla(TMS) = C[Si](C)(C)C[C@@H](N)C(=O)O; 3Pal = N[C@@H](Cc1cccnc1)C(=O)O; aThr = C[C@H](O)[C@H](N)C(=O)O
Answers are plain numbers, in µg/mL.

A selection of reference data follows.
>  <compound>
CC[C@H](C)[C@@H]1NC(=O)[C@@H](CCCNC(=N)N)NC(=O)[C@H](CC(C)C)NC(=O)[C@H]([C@H](O)C(C)C)NC(=O)[C@@H](NC(=O)[C@H](Cc2cccnc2)NC(=O)[C@H](N)C[Si](C)(C)C)[C@@H](c2ccccc2)OC(=O)[C@H](CO)NC(=O)[C@H]([C@H](O)C(N)=O)NC(=O)CNC(=O)[C@H]([C@H](C)O)NC1=O [Example 2] (H-[dAla(TMS)][3Pal][Phe(3R-OH)][Leu(3R-OH)]L[dR]I[aThr]G[Asn(3S-OH)]S; ester 3-C)

>  <MIC S. aureus 133 / µg/mL>
0.125

$$$$
>  <compound>
CC[C@H](C)[C@@H]1NC(=O)[C@@H](CCCNC(=N)N)NC(=O)[C@H](CC(C)C)NC(=O)[C@H]([C@H](O)C(C)C)NC(=O)[C@@H](NC(=O)[C@H](CC(C)C)NC(=O)[C@H](N)CC(C)C)[C@@H](c2ccccc2)OC(=O)[C@H](CO)NC(=O)[C@H]([C@H](O)C(N)=O)NC(=O)CNC(=O)[C@H]([C@H](C)O)NC1=O [Example 1A, reference compound] (H-[dL]L[Phe(3R-OH)][Leu(3R-OH)]L[dR]I[aThr]G[Asn(3S-OH)]S; ester 3-C)

>  <MIC S. aureus 133 / µg/mL>
0.5

$$$$
>  <compound>
CC[C@H](C)[C@@H]1NC(=O)[C@@H](CCCNC(=N)N)NC(=O)[C@H](CC(C)C)NC(=O)[C@H]([C@H](O)C(C)C)NC(=O)[C@@H](NC(=O)[C@H](Cc2cccnc2)NC(=O)[C@H](N)C[Si](C)(C)C)[C@@H](c2ccccc2)OC(=O)[C@H](CO)NC(=O)[C@H]([C@H](O)C(N)=O)NC(=O)CNC(=O)[C@H]([C@H](C)O)NC1=O [Example 8] (H-[dAla(TMS)][3Pal][Phe(3R-OH)][Leu(3R-OH)]L[dR]I[aThr]G[Asn(3S-OH)]S; ester 3-C)

>  <MIC S. aureus 133 / µg/mL>
0.25

$$$$
>  <compound>
CC[C@H](C)[C@@H]1NC(=O)[C@@H](CCCNC(=N)N)NC(=O)[C@H](CC(C)C)NC(=O)[C@H]([C@H](O)C(C)C)NC(=O)[C@@H](NC(=O)[C@H](Cc2cccnc2)NC(=O)[C@H](N)C[Si](C)(C)C)[C@@H](c2ccccc2)OC(=O)[C@H](CO)NC(=O)[C@H]([C@H](O)C(N)=O)NC(=O)CNC(=O)[C@H]([C@H](C)O)NC1=O [Example 3] (H-[dAla(TMS)][3Pal][Phe(3R-OH)][Leu(3R-OH)]L[dR]I[aThr]G[Asn(3S-OH)]S; ester 3-C)

>  <MIC S. aureus 133 / µg/mL>
0.5

$$$$

Now for the compound whose MIC S. aureus 133 we want.
Prompt: What MIC S. aureus 133 value was documented for this compound, CC[C@H](C)[C@@H]1NC(=O)[C@@H](CCCNC(=N)N)NC(=O)[C@H](CC(C)C)NC(=O)[C@H]([C@H](O)C(C)C)NC(=O)[C@@H](NC(=O)[C@H](Cc2cccnc2)NC(=O)[C@H](N)C[Si](C)(C)C)[C@@H](c2ccccc2)OC(=O)[C@H](CO)NC(=O)[C@H]([C@H](O)C(N)=O)NC(=O)CNC(=O)[C@H]([C@H](C)O)NC1=O [Example 7] (H-[dAla(TMS)][3Pal][Phe(3R-OH)][Leu(3R-OH)]L[dR]I[aThr]G[Asn(3S-OH)]S; ester 3-C) ?
Response: 0.063
